This collection of values is drawn from patent US20250277029A1.

# tested-on: T1, GFP-fused huCB1-SMALP (human CB1 in styrene maleic acid lipoparticles) (human, UniProt P21554 1-472)
# T1 construct: Prepared as in Luna V. et al. 2018; also called huCB1-GFP-SMALP; wtCB1-SMALP; not shown: GFP fusion
# assay-name: flow cytometry, yeast-displayed IgG, GFP MFI
quantity: 100 nM huCB1-SMALP binding (normalized to 10D10) (fold)

[
  {
    "binder": "LIBC523815-1 (antibody, V domains shown) VH: QVQLQESGPGLVKPSQTLSLTCTVSGGSIRRGGDYWSWIRQHPGKGLEWIGHIYQSGQTKYNPSLKDRATISVNTYKNQFSLKLSSVTAADTAVYYCARDYDILTGYSYYYYGMDVWGQGTTVTVSS VL: DIVMTQSPLSLPVTPGEPASISCRSSQSLLTSSGANYVDWYLQKPGQSPQLLIYLGSNRASGVPDRFSGSGSGTDFTLKISRVEAEDVGVYYCRQAREQPRTFGQGTKVEIKR",
    "data-value": 4.55
  },
  {
    "binder": "LIBC523857-1 (antibody, V domains shown) VH: QVQLQESGPGLVKPSQTLSLTCTVSGGSIRRGGDYWSWIRQHPGKGLEWIGHIYQTGQTAYNPRLEGRATISVNTYKNQFSLKLSSVTAADTAVYYCARDYDILTGYSYYYYGMDVWGQGTTVTVSS VL: DIVMTQSPLSLPVTPGEPASISCRSSQSLLSSTGANYLDWYLQKPGQSPQLLIYLGSNRASGVPDRFSGSGSGTDFTLKISRVEAEDVGVYYCRQAVELPRTFGQGTKVEIKR",
    "data-value": 4.71
  }
]
